From: patent US20180273528A1

- test target: DYRK1A (Homo sapiens)
- method summary: Cellular DYRK1 autophosphorylation assay in U2-OS cells
- Format: cell-based
- Design: full-length, wild-type human DYRK1A (NM_001396) with an HA tag; expressed in transfected cells; host or cells: human U2-OS osteosarcoma cells, transient transfection of a pcDNA3.1 plasmid
- condition: U2-OS cells transfected with HA-tagged human DYRK1A, 5 hours exposure; read-out: IC50 (μM) P-Ser520-Dyrk1A -Cell assay
Just a reminder that ties go to F: only IC50 strictly below 0.1 µM counts as T.

Data request: Does this compound meet the criterion IC50 < 0.1 µM? CC[C@H](Cn1c(C)nc2ccc(-c3cc(N)nc(N)c3)nc21)Oc1ccccc1 (single isomer, unassigned)
Data returned: F

Data request: Does this compound meet the criterion IC50 < 0.1 µM? COc1cccc(OCCn2c(C)nc3ccc(-c4cc(N)nc(N)c4)nc32)c1
Data returned: F

Data request: Does this compound meet the criterion IC50 < 0.1 µM? Cc1nc2ccc(-c3cc(N)nc(N)c3)nc2n1C[C@@H](C)N(C)c1ccccc1 (single isomer, unassigned)
Data returned: T

Data request: Does this compound meet the criterion IC50 < 0.1 µM? C=CCCn1c(C)nc2ccc(-c3cc(N)nc(N)c3)nc21
Data returned: T

Data request: Does this compound meet the criterion IC50 < 0.1 µM? Cc1nc2ccc(-c3cc(N)nc(N)c3)nc2n1C1CCOCC1
Data returned: F

Data request: Does this compound meet the criterion IC50 < 0.1 µM? CCCCCCn1c(C)nc2ccc(-c3cc(N)nc(N)c3)nc21
Data returned: T

Data request: Does this compound meet the criterion IC50 < 0.1 µM? N#Cc1nc2ccc(-c3cc(N)nc(N)c3)nc2n1C1CC1
Data returned: T

Data request: Does this compound meet the criterion IC50 < 0.1 µM? Cc1nc2ccc(-c3cc(N)nc(N)c3)nc2[nH]1
Data returned: F

Data request: Does this compound meet the criterion IC50 < 0.1 µM? COCCCCn1c(C)nc2ccc(-c3cc(N)nc(N)c3)nc21
Data returned: F

Data request: Does this compound meet the criterion IC50 < 0.1 µM? Cc1nc2ccc(-c3cc(N)nc(N)c3)nc2n1CCOc1ccc(Cl)cc1
Data returned: F

Data request: Does this compound meet the criterion IC50 < 0.1 µM? Cc1nc2ccc(-c3cc(N)nc(N)c3)nc2n1CCOc1c(F)cccc1F
Data returned: T

Data request: Does this compound meet the criterion IC50 < 0.1 µM? COCCCn1c(C)nc2ccc(-c3cc(N)nc(N)c3)nc21
Data returned: F

Data request: Does this compound meet the criterion IC50 < 0.1 µM? COc1ccccc1OCCn1c(C)nc2ccc(-c3cc(N)nc(N)c3)nc21
Data returned: T

Data request: Does this compound meet the criterion IC50 < 0.1 µM? COc1cccc2c1CCC(n1c(C)nc3ccc(-c4cc(N)nc(N)c4)nc31)C2 (stereo not drawn)
Data returned: F

Data request: Does this compound meet the criterion IC50 < 0.1 µM? Cc1nc2ccc(-c3cc(N)nc(N)c3)nc2n1CCC1CC1
Data returned: T

Data request: Does this compound meet the criterion IC50 < 0.1 µM? C=CCn1c(C)nc2ccc(-c3cc(N)nc(N)c3)nc21
Data returned: T

Data request: Does this compound meet the criterion IC50 < 0.1 µM? CCc1nc2ccc(-c3cc(N)nc(N)c3)nc2n1C1CCCC1
Data returned: F

Data request: Does this compound meet the criterion IC50 < 0.1 µM? Cc1nc2ccc(-c3cc(N)nc(N)c3)nc2n1CCCC(F)(F)F
Data returned: T
